Reported IC50 values follow for various binders
# assayed_target: HLA-A01.01 class I MHC molecule (prepared complex) (human)
# assay: displacement of radiolabeled reference peptide from class I MHC, gel filtration; 'Affinity (nM)'
# condition_notes: remark: other sources report otherwise
The answer is to be given in µM; state only the numeric part.

1. LTSTVQLIM [EGFR, T790M peptide …] = 2.89

[ask] Which IC50 value is on record for CLTSTVQLIM [EGFR_T790M peptide …] ?
[reply] 8.28
